Molecular target: beta-catenin (human)
Sequence (B6V8E6 146-665 limits assumed): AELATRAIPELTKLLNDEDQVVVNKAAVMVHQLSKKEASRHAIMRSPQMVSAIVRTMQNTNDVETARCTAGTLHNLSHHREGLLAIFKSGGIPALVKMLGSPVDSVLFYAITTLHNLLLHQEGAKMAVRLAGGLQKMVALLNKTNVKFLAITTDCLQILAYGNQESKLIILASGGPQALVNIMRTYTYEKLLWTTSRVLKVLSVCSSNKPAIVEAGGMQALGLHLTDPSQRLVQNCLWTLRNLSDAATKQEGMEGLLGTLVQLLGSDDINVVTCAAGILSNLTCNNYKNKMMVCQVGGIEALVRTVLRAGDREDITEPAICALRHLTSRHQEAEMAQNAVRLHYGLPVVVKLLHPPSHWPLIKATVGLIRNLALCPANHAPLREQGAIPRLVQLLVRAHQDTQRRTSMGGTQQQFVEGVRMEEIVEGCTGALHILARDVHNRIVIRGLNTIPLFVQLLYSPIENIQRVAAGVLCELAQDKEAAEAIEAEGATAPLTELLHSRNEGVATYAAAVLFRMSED
Test: fluorescence polarization
pIC50: −log10 of the molar value. *1 amine or outer side, *2 acyl side, *3 side chain or, on linkers, in order; H or OH if unused. Bridges are numbered along the chain shown (N, C = ends). Primed or numbered codes have the meaning given here. [ ]: non-standard residue; d: D form. PyrS2(5) = (S)-3-amino-1-((pent-4-en-1-yloxy)carbonyl)pyrrolidine-3-carboxylic acid, C=CCCCOC(=O)N1CC[C@@](N[*:1])(C(=O)[*:2])C1; B5(5) = 2-amino-2-(pent-4-en-1-yl)hept-6-enoic acid (two olefin arms), C=CCCCC(CCCC=C)(N[*:1])C(=O)[*:2]; Phe(3-COOH) = N[C@@H](Cc1cccc(C(=O)O)c1)C(=O)O; Bta = N[C@@H](Cc1csc2ccccc12)C(=O)O; αAllylPro = C=CC[C@@]1(C(=O)O)CCCN1; tBuAla = CC(C)(C)C[C@H](N)C(=O)O; 3Thi = N[C@@H](Cc1ccsc1)C(=O)O; Orn = NCCC[C@H](N)C(=O)O; AsnR = not defined here
readout label: pIC50

Ac-[αAllylPro]D[tBuAla][B5(5)]D[Phe(3-COOH)]KAFL[PyrS2(5)][3Thi][Bta]K-NH2 (not fully specified (residue 6); printed as Ac-PL3-Asp-Npg-B5-Asp-3COOHF-[isophthalate]-Lys-Ala-Phe-Leu-PyrS2-3Thi-BztA-Lys-NH2; also: isophthalate unit next to Lys7, attachment not given here, PL3/B5/PyrS2 staple links not placed) [I-45]
> 7.30

Data point: Ac-[αAllylPro]D[tBuAla][B5(5)]D[Phe(3-COOH)]AAF[AsnR][PyrS2(5)][3Thi][Bta][Orn]-NH2 (bridge 10-14; reading uncertain; also: PL3/B5/PyrS2 staple links not placed, printed as Ac-PL3-Asp-Npg-B5-Asp-3COOHF-Ala-Ala-Phe-AsnR*3-PyrS2-3Thi-BztA-Orn*3-NH2) [I-40] ; pIC50 = < 6.00
